- Measured on: α3β4 nAChR subtype (Rattus norvegicus, UniProt P04757+P12392)
- Construct: expressed in transfected cells
- Sequence (P04757 26-499): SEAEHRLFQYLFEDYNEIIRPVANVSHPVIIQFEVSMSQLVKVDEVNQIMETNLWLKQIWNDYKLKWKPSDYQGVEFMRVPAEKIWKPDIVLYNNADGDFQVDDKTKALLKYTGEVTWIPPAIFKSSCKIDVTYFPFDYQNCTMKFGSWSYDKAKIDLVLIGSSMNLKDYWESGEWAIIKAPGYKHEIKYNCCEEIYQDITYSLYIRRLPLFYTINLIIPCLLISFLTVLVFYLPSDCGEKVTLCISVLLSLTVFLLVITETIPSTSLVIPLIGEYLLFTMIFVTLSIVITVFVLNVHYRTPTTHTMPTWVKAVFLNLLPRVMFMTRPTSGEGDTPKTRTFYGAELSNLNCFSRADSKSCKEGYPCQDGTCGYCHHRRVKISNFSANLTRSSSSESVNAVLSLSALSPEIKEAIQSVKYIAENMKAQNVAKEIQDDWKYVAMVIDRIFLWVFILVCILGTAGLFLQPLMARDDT
- Sequence (P12392 21-495): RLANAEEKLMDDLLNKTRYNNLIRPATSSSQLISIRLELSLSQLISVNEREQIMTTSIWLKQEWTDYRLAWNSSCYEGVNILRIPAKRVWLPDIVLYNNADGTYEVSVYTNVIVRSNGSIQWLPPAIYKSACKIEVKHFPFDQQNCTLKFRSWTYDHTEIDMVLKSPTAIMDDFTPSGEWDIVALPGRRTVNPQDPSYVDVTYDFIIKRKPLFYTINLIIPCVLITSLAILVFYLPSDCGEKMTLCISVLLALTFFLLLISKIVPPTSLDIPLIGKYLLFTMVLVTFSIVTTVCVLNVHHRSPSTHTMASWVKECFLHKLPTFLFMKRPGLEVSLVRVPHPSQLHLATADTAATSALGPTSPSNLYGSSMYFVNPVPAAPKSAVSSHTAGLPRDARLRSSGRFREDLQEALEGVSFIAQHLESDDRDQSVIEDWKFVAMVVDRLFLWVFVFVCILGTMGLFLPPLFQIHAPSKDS
- Protocol summary: biochemical
- Type: binding
Reported endpoint: Ki (µM)

{"Compound": "O=c1cccc2n1C[C@H]1C[C@@H]2CN(CCCN2C[C@@H]3C[C@H](C2)c2cccc(=O)n2C3)C1", "Value qualifier": ">", "Value reported": 10}
{"Compound": "O=c1cccc2n1C[C@H]1C[C@@H]2CN(CCCOc2cccnc2)C1", "Value qualifier": ">", "Value reported": 10}
{"Compound": "CN1CCC[C@H]1COc1cncc(C#CCCCCO)c1", "Value qualifier": "=", "Value reported": 40.2}
{"Compound": "O=c1cccc2n1C[C@H]1C[C@@H]2CN(CCCCCN2C[C@@H]3C[C@H](C2)c2cccc(=O)n2C3)C1", "Value qualifier": ">", "Value reported": 10}
{"Compound": "O=c1cccc2n1C[C@H]1C[C@@H]2CN(CCCCl)C1", "Value qualifier": ">", "Value reported": 10}
{"Compound": "CN1CCC[C@H]1COc1cncc(C#CCNC(=O)OC(C)(C)C)c1", "Value qualifier": "=", "Value reported": 59.9}
{"Compound": "CN1CCC[C@H]1COc1cncc(C#CC(C)(C)O)c1", "Value qualifier": "=", "Value reported": 32.6}
{"Compound": "CC(N)C#Cc1cncc(OC[C@@H]2CCCN2C)c1 (some centres unmarked)", "Value qualifier": "=", "Value reported": 127}

====

- Measured on: α2β4 nAChR subtype (Rattus norvegicus, UniProt P12389+P12392)
- Construct: expressed in transfected cells
- Sequence (P12389 28-511, one chain of several): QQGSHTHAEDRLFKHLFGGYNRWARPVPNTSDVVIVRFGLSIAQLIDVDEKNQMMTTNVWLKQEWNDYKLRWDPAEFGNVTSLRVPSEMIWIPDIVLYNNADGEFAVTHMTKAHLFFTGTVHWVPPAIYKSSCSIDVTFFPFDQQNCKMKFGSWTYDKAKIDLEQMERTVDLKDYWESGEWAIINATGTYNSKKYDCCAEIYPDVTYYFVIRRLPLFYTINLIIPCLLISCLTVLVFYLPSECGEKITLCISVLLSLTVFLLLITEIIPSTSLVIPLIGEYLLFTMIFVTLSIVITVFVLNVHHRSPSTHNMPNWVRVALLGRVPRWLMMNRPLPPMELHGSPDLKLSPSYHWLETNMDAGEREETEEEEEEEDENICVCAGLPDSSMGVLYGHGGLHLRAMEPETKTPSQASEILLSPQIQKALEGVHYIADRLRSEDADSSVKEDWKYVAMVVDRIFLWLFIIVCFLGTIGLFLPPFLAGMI
- Protocol summary: biochemical
- Type: binding
- Experimental conditions: Ki α2β4, Table 5; rat nAChR subtypes
Listed here are compounds together with their documented Ki.

{"Compound": "FC1CC2CC(c3ccc(Cl)nc3)C1N2 (centres unmarked)", "Units label": "µM", "Ki": 0.000481}
{"Compound": "Clc1cc2c(cn1)C1(CC2)CC2CCC1N2 (centres unmarked) [Ligand 58a]", "Units label": "µM", "Ki": 11.6}
{"Compound": "CCCCCc1cncc(C2CC3CCC2N3)c1 (centres unmarked)", "Units label": "µM", "Ki": 0.0249}
{"Compound": "OCCCCC#Cc1cncc(C2CC3CCC2N3)c1 (centres unmarked)", "Units label": "µM", "Ki": 0.0451}
{"Compound": "O=C1CC2CC(c3ccc(Cl)nc3)C1N2 (centres unmarked)", "Units label": "µM", "Ki": 3.24}
{"Compound": "OC1CC2CC(c3ccc(Cl)nc3)C1N2 (centres unmarked)", "Units label": "µM", "Ki": 0.0397}
{"Compound": "OC1C2CCC(N2)C1c1ccc(Cl)nc1 (single isomer, unassigned) [Ligand 3]", "Units label": "µM", "Ki": 0.0153}
{"Compound": "OCCCCC#Cc1cncc(OC[C@@H]2CCN2)c1", "Units label": "µM", "Ki": 0.269}
{"Compound": "O=C1CC2NC1CC2c1ccc(Cl)nc1 (centres unmarked)", "Units label": "µM", "Ki": 1.14}
{"Compound": "COC(=O)c1nc(Cl)ccc1C1CC2CCC1N2 (centres unmarked)", "Units label": "µM", "Ki": 28.1}
{"Compound": "Clc1cc2c(cn1)C1C3CCC(N3)C1CC2 (centres unmarked) [Ligand 37a]", "Units label": "µM", "Ki": 0.693}

====

Parameter Ki: see the listing below.
- Measured on: α4β2 nAChR subtype (Rattus norvegicus, UniProt P09483+P12390)
- Construct: expressed in transfected cells
- Sequence (P12390 25-500): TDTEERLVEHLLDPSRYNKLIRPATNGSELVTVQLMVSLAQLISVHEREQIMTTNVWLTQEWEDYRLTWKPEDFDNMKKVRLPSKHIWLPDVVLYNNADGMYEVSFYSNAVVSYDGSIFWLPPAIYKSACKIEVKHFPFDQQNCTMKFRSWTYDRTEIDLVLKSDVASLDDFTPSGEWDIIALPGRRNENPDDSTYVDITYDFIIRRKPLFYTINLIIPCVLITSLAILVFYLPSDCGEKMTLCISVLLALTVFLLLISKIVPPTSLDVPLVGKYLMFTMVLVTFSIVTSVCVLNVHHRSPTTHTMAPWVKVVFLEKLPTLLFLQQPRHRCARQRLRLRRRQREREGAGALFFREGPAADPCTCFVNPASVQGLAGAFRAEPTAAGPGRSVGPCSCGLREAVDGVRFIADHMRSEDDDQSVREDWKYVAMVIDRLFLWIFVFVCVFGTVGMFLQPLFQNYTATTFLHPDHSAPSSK
- Sequence (P09483 31-630): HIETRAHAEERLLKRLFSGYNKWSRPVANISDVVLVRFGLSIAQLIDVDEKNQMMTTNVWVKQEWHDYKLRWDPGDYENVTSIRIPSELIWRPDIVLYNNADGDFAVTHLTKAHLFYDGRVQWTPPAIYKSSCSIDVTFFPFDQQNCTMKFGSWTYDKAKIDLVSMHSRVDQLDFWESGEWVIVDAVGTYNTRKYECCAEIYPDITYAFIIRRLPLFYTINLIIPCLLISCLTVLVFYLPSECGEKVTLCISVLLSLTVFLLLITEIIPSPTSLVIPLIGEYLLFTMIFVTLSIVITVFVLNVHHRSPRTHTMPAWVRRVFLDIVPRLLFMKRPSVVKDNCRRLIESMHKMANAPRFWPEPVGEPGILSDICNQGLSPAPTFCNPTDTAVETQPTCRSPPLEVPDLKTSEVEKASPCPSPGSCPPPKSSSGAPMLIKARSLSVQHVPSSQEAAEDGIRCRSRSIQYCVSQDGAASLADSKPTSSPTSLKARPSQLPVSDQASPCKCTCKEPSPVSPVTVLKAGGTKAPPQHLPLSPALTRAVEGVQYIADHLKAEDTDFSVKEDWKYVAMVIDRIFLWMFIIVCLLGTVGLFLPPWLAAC
- Protocol summary: biochemical
- Format: binding
- Experimental conditions: Ki α4β2, Table 5; rat nAChR subtypes
Reported endpoint: Ki (nM)

{"Compound": "Clc1ccc2c(n1)CCC21CC2CCC1N2 (stereo not drawn) [Ligand 58b]", "Reported endpoint": "Ki", "Value reported": 5050}
{"Compound": "OCCCCC#Cc1cncc(OC[C@@H]2CCN2)c1", "Reported endpoint": "Ki", "Value reported": 0.09}
{"Compound": "Clc1ccc(C2CC3CC4(OCCO4)C2N3)cn1 (stereo not drawn)", "Reported endpoint": "Ki", "Value reported": 57.3}
{"Compound": "OCCCCC#Cc1cncc(OC[C@@H]2CCCN2)c1", "Reported endpoint": "Ki", "Value reported": 0.665}
{"Compound": "OC1CC2NC1CC2c1ccc(Cl)nc1 (stereo not drawn)", "Reported endpoint": "Ki", "Value reported": 70.9}
{"Compound": "Clc1cc2c(cn1)C1C3CCC(N3)C1CC2 (stereo not drawn) [Ligand 37a]", "Reported endpoint": "Ki", "Value reported": 67.4}

====

- Measured on: α3β2 nAChR subtype (Rattus norvegicus, UniProt P04757+P12390)
- Construct: expressed in transfected cells
- Sequence (P12390 25-500): as the sequence (P12390 25-500) above
- Sequence (P04757 26-499): as the sequence (P04757 26-499) above
- Protocol summary: biochemical
- Assay type: binding
- Experimental conditions: Ki α3β2, Table 5; rat nAChR subtypes
So basically: is Ki under 9 nM? Then fulfilled. Not under? Then not fulfilled.

{"Compound": "FC1CC2CC(c3ccc(Cl)nc3)C1N2 (centres unmarked) [Ligand 11]", "Label class": "fulfilled"}
{"Compound": "Clc1ccc2c(n1)CCC1C3CCC(N3)C21 (centres unmarked) [Ligand 37b]", "Label class": "not fulfilled"}
{"Compound": "OCCCCC#Cc1cncc(C2CC3CCC2N3)c1 (centres unmarked) [Ligand 31]", "Label class": "fulfilled"}

====

Each entry below carries its reported Ki.
- Measured on: α4β4 nAChR subtype (Rattus norvegicus, UniProt P09483+P12392)
- Construct: expressed in transfected cells
- Protocol summary: biochemical
- Assay type: binding
- Experimental conditions: Ki α4β4, Table 5; rat nAChR subtypes
- Text: In order to assess the steric and hydropathic effects of the C-5 substituents of the pyridine on the binding affinity and subtype-selectivity at neuronal nicotinic acetylcholine receptors. […] The binding affinity ratios for a ligand, calculated from its affinities at an α subunit paired with either the β2 osubunit or the β4 subunit, represents a measure of the selectivity of that ligand with regard to the β subunits.
Reported endpoint: Ki (nM)

{"Molecule": "CN1CCC[C@H]1COc1cccnc1 [Ligand 8, reference compound]", "Units label": "nM", "Value reported": 205}
{"Molecule": "Clc1ccc(C2CC3CC4(OCCO4)C2N3)cn1 (centres unmarked)", "Units label": "nM", "Value reported": 53.1}
{"Molecule": "OC1C2CCC(N2)C1c1ccc(Cl)nc1 (single isomer, unassigned) [Ligand 2]", "Units label": "nM", "Value reported": 515}
{"Molecule": "O=C1CC2CC(c3ccc(Cl)nc3)C1N2 (centres unmarked)", "Units label": "nM", "Value reported": 3560}
{"Molecule": "O=C1CC2NC1CC2c1ccc(Cl)nc1 (centres unmarked)", "Units label": "nM", "Value reported": 3240}
{"Molecule": "c1cncc(OC[C@@H]2CCN2)c1 [Ligand A-85380, reference compound]", "Units label": "nM", "Value reported": 8.04}
{"Molecule": "FCCCCC#Cc1cncc(OC[C@@H]2CCCN2)c1", "Units label": "nM", "Value reported": 721}
{"Molecule": "COC(=O)c1nc(Cl)ccc1C1CC2CCC1N2 (centres unmarked)", "Units label": "nM", "Value reported": 46500}
{"Molecule": "OC1CC2NC1CC2c1ccc(Cl)nc1 (centres unmarked)", "Units label": "nM", "Value reported": 247}
{"Molecule": "CCCCCc1cncc(C2CC3CCC2N3)c1 (centres unmarked)", "Units label": "nM", "Value reported": 7.91}
{"Molecule": "CCCCCC#Cc1ccc(C2CC3CCC2N3)cn1 (centres unmarked)", "Units label": "nM", "Value reported": 61.8}

====

In this section, each of the compounds is paired with its reported pKi.
- Measured on: receptors in rat forebrain (mainly α4β2) (Rattus norvegicus, UniProt P09483+P12390)
- Construct: from tissue; host or cells: rat forebrain homogenate
- Protocol summary: biochemical
- Type: binding
pKi: −log10 of the molar value.

{"Compound": "CN1CCC[C@H]1COc1cncc(C#CCNC(=O)OC(C)(C)C)c1", "pKi": 8.43}
{"Compound": "CN1CCC[C@H]1COc1cncc(C#CCCCCO)c1", "pKi": 8.45}
{"Compound": "O=c1cccc2n1C[C@H]1C[C@@H]2CN(CCCCCN2C[C@@H]3C[C@H](C2)c2cccc(=O)n2C3)C1", "pKi": 6.22}
{"Compound": "CN1CCC[C@H]1COc1cncc(C#CC(C)(C)O)c1", "pKi": 8.08}
{"Compound": "O=c1cccc2n1C[C@H]1C[C@@H]2CN(CCCN2C[C@@H]3C[C@H](C2)c2cccc(=O)n2C3)C1", "pKi": 6.03}
{"Compound": "CC(N)C#Cc1cncc(OC[C@@H]2CCCN2C)c1 (stereo partly shown)", "pKi": 7.38}
{"Compound": "O=c1cccc2n1C[C@H]1C[C@@H]2CN(CCCCl)C1", "pKi": 5.83}
{"Compound": "O=c1cccc2n1C[C@H]1C[C@@H]2CN(CCCOc2cccnc2)C1", "pKi": 5.34}
{"Compound": "CN1CCC[C@H]1COc1cncc(CCCCCCO)c1", "pKi": 8.27}
{"Compound": "O=c1cccc2n1C[C@@H]1CNC[C@H]2C1 [Cytisine, reference compound]", "pKi": 8.59}
